# experimental-target: T1, EsCas13d, nuclease-dead (Eubacterium siraeum, UniProt B0MS50, R295A;H300A;R849A;H854A)
# T1 sequence: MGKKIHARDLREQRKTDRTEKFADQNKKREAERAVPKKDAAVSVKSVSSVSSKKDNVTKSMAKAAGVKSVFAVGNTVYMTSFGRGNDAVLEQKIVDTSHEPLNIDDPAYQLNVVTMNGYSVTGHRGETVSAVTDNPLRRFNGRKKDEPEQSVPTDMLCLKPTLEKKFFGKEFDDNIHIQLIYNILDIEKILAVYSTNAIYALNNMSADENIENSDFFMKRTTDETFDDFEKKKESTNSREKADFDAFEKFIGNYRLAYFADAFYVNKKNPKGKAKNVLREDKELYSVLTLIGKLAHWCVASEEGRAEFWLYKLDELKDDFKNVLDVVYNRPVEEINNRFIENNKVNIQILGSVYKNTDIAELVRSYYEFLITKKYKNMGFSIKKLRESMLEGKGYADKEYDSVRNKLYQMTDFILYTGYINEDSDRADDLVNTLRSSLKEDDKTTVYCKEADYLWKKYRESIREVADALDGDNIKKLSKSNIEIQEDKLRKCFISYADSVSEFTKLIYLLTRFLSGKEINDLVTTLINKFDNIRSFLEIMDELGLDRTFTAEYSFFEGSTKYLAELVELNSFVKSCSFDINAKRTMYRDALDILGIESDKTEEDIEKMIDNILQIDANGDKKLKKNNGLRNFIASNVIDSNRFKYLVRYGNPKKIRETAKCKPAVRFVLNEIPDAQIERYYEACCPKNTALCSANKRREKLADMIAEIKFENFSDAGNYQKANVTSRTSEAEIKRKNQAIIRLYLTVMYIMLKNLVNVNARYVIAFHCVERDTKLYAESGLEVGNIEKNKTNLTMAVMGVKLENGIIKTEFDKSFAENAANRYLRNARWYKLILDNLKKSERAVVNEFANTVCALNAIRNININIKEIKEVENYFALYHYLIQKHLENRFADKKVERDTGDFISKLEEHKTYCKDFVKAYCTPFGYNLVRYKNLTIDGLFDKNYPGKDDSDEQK
# assay-text: crRNA (strand 1, pre-loaded); Mg2+; 40 mM Tris-HCl pH 7.5, 150 mM NaCl, 6 mM MgCl2, 1 mM DTT, 0.1% Tween-20, 0.2 mg/ml BSA; 25 C; 10 min per concentration, then washed
# condition-info: tags: His6-TwinStrep-SUMO cleaved; N-terminal SNAP kept (SNAP-Surface 488); label: 3' end held by stalled T7 RNA polymerase
# Kd annotations

- binder: "target 3 U2G,G3A (mixed) RNA 1: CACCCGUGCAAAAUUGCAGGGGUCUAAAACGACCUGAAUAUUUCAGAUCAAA RNA 2: GGGAAUGGAUCCACAUCUACGAAUUCGUUUUUGAUCUGAAAUAUUCAGAGCUGCAGAUCGGAAGAGCACACGU"
  Kd, nM: 44
- binder: "target 1 MT 5'PFS UGC 3'PFS CCG (mixed) RNA 1: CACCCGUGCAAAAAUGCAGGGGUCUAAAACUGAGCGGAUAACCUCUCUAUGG RNA 2: GGGAAUGGAUCCACAUCUACGAAUUCUGCCCAUAGAGAGGUUAUCCGCUCACCGAGAUCGGAAGAGCACACGU"
  Kd, nM: 11.8
- binder: "target 1 MT 5'PFS GUG 3'PFS GAG (mixed) RNA 1: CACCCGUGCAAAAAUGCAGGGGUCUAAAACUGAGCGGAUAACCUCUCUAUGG RNA 2: GGGAAUGGAUCCACAUCUACGAAUUCGUGCCAUAGAGAGGUUAUCCGCUCAGAGAGAUCGGAAGAGCACACGU"
  Kd, nM: 18.8
- binder: "target 1 insC 3' of 22,insG 3' of 10 (mixed) RNA 1: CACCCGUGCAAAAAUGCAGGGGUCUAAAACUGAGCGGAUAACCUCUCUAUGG RNA 2: GGGAAUGGAUCCACAUCUACGAAUUCGUACCCAUAGAGAGGUUGAUCCGCUCACCGAGAUCGGAAGAGCACACGU"
  Kd, nM: 34.4
